Origin of values: the supplement of paper PMC8728848

molecular target: Gal(b1-4)GlcNAc(b1-6)Gal(b1-4)GlcNAc; test: glycan array binding signal (z-score within array); higher = stronger binding; details: glycan notation: IUPAC condensed, linker removed
The sample as a whole holds a higher share of the strongest signals than the screen did.
For each entry below, report its glycan array binding signal (z-score) value.
API doc: respond with a numeric literal and nothing else, no unit.

Which glycan array binding signal (z-score) value is on record for FimA-N2 (Actinomyces oris) (protein) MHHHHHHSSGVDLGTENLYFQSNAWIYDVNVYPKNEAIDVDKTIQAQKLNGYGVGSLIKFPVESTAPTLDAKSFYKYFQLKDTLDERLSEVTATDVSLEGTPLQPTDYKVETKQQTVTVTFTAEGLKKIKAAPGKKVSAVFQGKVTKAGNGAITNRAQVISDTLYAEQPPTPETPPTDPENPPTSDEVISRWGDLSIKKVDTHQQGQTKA ? -0.5

Another: SBD (Rhizopus oryzae), P07683 (protein) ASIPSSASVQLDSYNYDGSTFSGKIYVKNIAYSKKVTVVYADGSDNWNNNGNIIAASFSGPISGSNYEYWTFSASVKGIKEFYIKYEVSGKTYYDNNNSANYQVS 0.47

Now consider Als3-2 (Candida albicans) (protein) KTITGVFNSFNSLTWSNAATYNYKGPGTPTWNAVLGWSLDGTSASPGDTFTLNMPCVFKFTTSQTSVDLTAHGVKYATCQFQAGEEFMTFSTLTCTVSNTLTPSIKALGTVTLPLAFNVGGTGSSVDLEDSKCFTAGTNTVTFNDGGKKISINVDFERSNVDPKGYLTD . 1.11

Try this binder too: Flo1 (Saccharomyces cerevisiae), P32768 (protein) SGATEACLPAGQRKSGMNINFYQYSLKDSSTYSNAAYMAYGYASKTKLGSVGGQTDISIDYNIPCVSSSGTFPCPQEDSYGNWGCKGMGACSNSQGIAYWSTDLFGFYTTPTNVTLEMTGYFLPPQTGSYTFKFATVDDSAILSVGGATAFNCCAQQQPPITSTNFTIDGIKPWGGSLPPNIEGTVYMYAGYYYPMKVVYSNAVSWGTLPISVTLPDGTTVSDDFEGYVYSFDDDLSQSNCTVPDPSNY -0.551
